- assayed.system: F508delCFTR (Homo sapiens, UniProt P13569, DEL508-508)
- Construct: expressed in transfected cells; host or cells: CFBE41o- human lung derived epithelial cells (CFBE41o-F508delCFTR-HRP), doxycycline-inducible
- Sequence (P13569 with tags, fused parts or gaps DEL508-508): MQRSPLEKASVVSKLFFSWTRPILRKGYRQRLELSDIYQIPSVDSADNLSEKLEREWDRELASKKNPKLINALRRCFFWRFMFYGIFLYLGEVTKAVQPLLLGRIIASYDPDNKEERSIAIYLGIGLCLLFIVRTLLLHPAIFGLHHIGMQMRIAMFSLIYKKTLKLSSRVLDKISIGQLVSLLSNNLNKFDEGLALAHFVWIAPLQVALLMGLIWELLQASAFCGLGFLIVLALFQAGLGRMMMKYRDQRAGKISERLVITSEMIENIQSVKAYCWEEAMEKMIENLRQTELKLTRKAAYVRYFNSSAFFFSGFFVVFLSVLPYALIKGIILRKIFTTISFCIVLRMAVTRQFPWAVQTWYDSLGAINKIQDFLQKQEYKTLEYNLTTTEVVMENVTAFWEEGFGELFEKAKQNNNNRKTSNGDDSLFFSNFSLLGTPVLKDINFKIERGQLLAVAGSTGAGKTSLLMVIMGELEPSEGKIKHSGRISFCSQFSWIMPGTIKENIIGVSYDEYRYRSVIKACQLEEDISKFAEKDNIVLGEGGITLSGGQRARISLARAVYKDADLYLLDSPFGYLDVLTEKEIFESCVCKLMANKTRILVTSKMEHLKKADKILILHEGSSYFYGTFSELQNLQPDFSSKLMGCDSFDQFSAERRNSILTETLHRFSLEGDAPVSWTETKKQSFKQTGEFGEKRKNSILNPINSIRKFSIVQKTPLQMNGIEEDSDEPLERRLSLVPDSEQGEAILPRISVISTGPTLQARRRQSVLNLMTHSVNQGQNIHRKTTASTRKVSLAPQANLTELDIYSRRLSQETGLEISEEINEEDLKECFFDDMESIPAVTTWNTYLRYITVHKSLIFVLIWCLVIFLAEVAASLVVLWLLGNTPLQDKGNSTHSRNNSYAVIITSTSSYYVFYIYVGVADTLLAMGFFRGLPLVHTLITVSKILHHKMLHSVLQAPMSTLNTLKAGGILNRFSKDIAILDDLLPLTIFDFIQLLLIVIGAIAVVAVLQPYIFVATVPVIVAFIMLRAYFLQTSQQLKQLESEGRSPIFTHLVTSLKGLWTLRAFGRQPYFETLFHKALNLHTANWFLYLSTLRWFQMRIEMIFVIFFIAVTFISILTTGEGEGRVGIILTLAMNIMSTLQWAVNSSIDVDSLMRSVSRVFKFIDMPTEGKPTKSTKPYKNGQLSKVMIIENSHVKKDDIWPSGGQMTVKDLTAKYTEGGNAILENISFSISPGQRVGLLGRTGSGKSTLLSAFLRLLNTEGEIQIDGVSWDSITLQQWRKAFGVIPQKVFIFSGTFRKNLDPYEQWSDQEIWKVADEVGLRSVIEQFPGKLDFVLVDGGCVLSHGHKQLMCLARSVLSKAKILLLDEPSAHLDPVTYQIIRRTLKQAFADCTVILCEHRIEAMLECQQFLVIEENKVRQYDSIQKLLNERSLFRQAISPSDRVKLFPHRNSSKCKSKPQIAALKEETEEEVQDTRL
- assay.text: Cell Surface Expression-Horse Radish Peroxidase (CSE-HRP) Assay
- Type: cell-based
- details: test compound alone, without co-corrector; read-out: EC50 (without co-corrector)
pEC50: −log10 of the molar value.
Listing: pEC50 of selected molecules

Use the examples below as a reference point.
Identify the measured pEC50 of CO[C@H](C)COc1ccc(C)cc1C1(C(=O)NS(=O)(=O)c2cccc3nc(C)ccc23)CC1 [Example I-116] for F508delCFTR (Homo sapiens, UniProt P13569, DEL508-508). > 5.52

Identify the measured pEC50 of O=C(NS(=O)(=O)c1ccccc1)C1(c2ccccc2F)CC1 [Example III-30] for F508delCFTR (Homo sapiens, UniProt P13569, DEL508-508). < 5.00

Identify the measured pEC50 of O=C(NS(=O)(=O)c1cccc2ccccc12)C1(c2cccc(Br)c2)CC1 [Example III-92] for F508delCFTR (Homo sapiens, UniProt P13569, DEL508-508). 5.00 to 5.52

More entries:
Identify the measured pEC50 of COc1ncc(C2CCC2)cc1C1(C(=O)NS(=O)(=O)c2cccc3ccn(C)c23)CC1 [Example I-20] for F508delCFTR (Homo sapiens, UniProt P13569, DEL508-508). > 5.52

Identify the measured pEC50 of O=C(N1CCc2ccc(S(=O)(=O)NC(=O)C3(c4cccc(Cl)c4)CC3)cc2C1)C(F)(F)F [Example III-72] for F508delCFTR (Homo sapiens, UniProt P13569, DEL508-508). < 5.00

Identify the measured pEC50 of CCOc1ccc(C)cc1C1(C(=O)NS(=O)(=O)c2cccc3nc(C)ccc23)CC1 [Example I-83] for F508delCFTR (Homo sapiens, UniProt P13569, DEL508-508). > 5.52
